# PROCEDURE_SUMMARY: protein stability index of a GFP-peptide fusion (GPS, HEK-293T) (PSI 1-6); higher = more stable;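 note: 24-mer peptide tiles fused after GFP, lentivirally expressed, FACS-sorted into six equal bins by GFP/DsRed ratio, decoded by Illumina sequencing, PSI is the read-weighted mean bin number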
# MEASUREMENT_PARAMETERS: treatment: DMSO; c terminus: a fixed tail appended
Each item that follows carries a reported protein stability index.
Note: the reply should be a number with no unit written.

These solved cases illustrate the format of a correct answer.
Lab book: protein stability index of WIGNEWLPSLGLPQYRSYFMECLV [PPFIA4] noted as 3.67

Lab book: protein stability index of GLDSPPLYPSAPILGGSGPVRKLY [ESRRG] noted as 3.37

Lab book: protein stability index of DSSEEESHRVVLRPRGKERHKSGV [LYSMD4] noted as 5.21

Lab book: protein stability index of GQVAEDRFPESHLPIQTPGAFLRT [TLE6] noted as 3.53

Lab book: protein stability index of CISDELLENLCENASTLRTINIKC [FBXO39] noted as 2.47

Lab book: protein stability index of LRCKLAAFYRLADLFGWSQLIYNH [ADD1] noted as 2.89

Lab book: protein stability index of DPGLWSRLCRLAGASSPAAYDEAL [ZSWIM9] noted as 2.82

Lab book: protein stability index of FENPADAKNAAKDMNGKSLHGKAI [RBMY1A1] noted as 4.92

Read the next record carefully.
Lab book: protein stability index of KLSGFMSKLVPAIQNAHKNSTGSG [TPRG1] noted as 2.72

---

# PROCEDURE_SUMMARY: protein stability index of a GFP-peptide fusion (GPS, HEK-293T) (PSI 1-6); higher = more stable
# MEASUREMENT_PARAMETERS: treatment: MLN4924 1 uM, 8 h; c terminus: a fixed tail appended
Decide using protein stability index: a value greater than or equal to 3 is Condition met, a smaller one is Condition not met.

Some solved cases for reference:
Exam item: Given LSKILAKLERLKQQNEDLRRMAES [FUT8] , state whether its protein stability index is at least 3.
Marked response: Condition met

Exam item: Given LSSVECLDYTADEDGVWYSVAPMN [KLHL12] , state whether its protein stability index is at least 3.
Marked response: Condition met

Exam item: Given DKLLKHMIIEHKIVIADVKLVADF [ZNF277] , state whether its protein stability index is at least 3.
Marked response: Condition not met

Exam item: Given SQEEGKSALEDQGSNPSSSNSSQD [PPFIA4] , state whether its protein stability index is at least 3.
Marked response: Condition met

Exam item: Given KLLVVDRTRRLGNMKNGANDVKHH [PRKX] , state whether its protein stability index is at least 3.
Marked response: Condition met

Exam item: Given LRCKLAAFYRLADLFGWSQLIYNH [ADD1] , state whether its protein stability index is at least 3.
Marked response: Condition not met

Let us examine a further case.
Exam item: Given TEPPQNPVTPLGLQNEVPPQPDPV [SERTAD3] , state whether its protein stability index is at least 3.
Marked response: Condition met

---

# PROCEDURE_SUMMARY: protein stability index of a GFP-peptide fusion (GPS, HEK-293T) (PSI 1-6); higher = more stable
# MEASUREMENT_PARAMETERS: treatment: MLN4924 1 uM, 8 h; c terminus: a fixed tail appended
Each item that follows carries a reported protein stability index.
Note: the reply should be a number with no unit written.

Lab book: protein stability index of FIAGLCVFIISTLAIDFIDEGRLL [SOAT2] noted as 3.01

***
Lab book: protein stability index of KQAKVVARRESGGRPIKPPKKDLE [BRD3] noted as 5.05

Lab book: protein stability index of NWFNVTGSDKCVFLKNTEVSSMEC [CD69] noted as 2.94

Lab book: protein stability index of GEPLALPLDAGEYCVPRGNRRRFR [BEX1] noted as 4.99

Lab book: protein stability index of LGPPLVRKRIHDSRVAGFNPALQL [TOR1AIP2] noted as 3.03

Lab book: protein stability index of MARLQEEHGDQLLSIRCQHQEQVE [MTUS2] noted as 4.96

Lab book: protein stability index of QGLLHEAGSTDDRIVVPQRGRSTR [SPNS1] noted as 5.14

---

Each item that follows carries a reported protein stability index.
# PROCEDURE_SUMMARY: protein stability index of a GFP-peptide fusion (GPS, HEK-293T) (PSI 1-6); higher = more stable
# MEASUREMENT_PARAMETERS: treatment: DMSO; c terminus: a fixed tail appended
Note: the reply should be a number with no unit written.

Lab book: protein stability index of KRESPGVGGGSGDEASAATPPSSR [ZBTB22] noted as 5.53

Lab book: protein stability index of EGAQLKKVEQNSRPVSCSGRDALL [WASL] noted as 4.53

Lab book: protein stability index of RRNPELQEELQIQAAVAAGDVHTV [ASB7] noted as 4.85

***
Lab book: protein stability index of SINQRLNKRERSKLKNLRRKQRRR [RNF180] noted as 3.9

Lab book: protein stability index of EQKNHTFPRLNRNKYMVTDGAAYI [PLD5] noted as 2.85

Lab book: protein stability index of CQTGGVEDQEEWHAQVVEELSNFK [ZBED1] noted as 5.73

---

# PROCEDURE_SUMMARY: protein stability index of a GFP-peptide fusion (GPS, HEK-293T) (PSI 1-6); higher = more stable
# MEASUREMENT_PARAMETERS: treatment: MLN4924 1 uM, 8 h; c terminus: a fixed tail appended
QUANTITY_KIND: protein stability index
Note: the reply should be a number with no unit written.

These solved cases illustrate the format of a correct answer.
Lab book: protein stability index of ILAETGIRKTVKRLRKHQHVGDFA [ELOA2] noted as 3.16

Lab book: protein stability index of SAGSPPELQGLPELHEECEGNHPS [NET1] noted as 5.56

Lab book: protein stability index of KGDVEEVQGPGVVGEFPIISPGRV [FBXO3] noted as 4.8

Lab book: protein stability index of LIVTSLLLLPGLNQHGIILKYIGM [ARL6IP1] noted as 3.15

Read the next record carefully.
Lab book: protein stability index of VGTESQGRDWRHLPTITSELSGAP [PXN] noted as 4.21

---

# PROCEDURE_SUMMARY: protein stability index of a GFP-peptide fusion (GPS, HEK-293T) (PSI 1-6); higher = more stable
# MEASUREMENT_PARAMETERS: treatment: DMSO; c terminus: a fixed tail appended
Categorized via protein stability index: one (below 3), two (3 to below 4), three (4 or more)

Some solved cases for reference:
Exam item: Which class does RQLRRRALHPERAMDNHSDSEEEL [RETREG3] fall in?
Marked response: three

Exam item: Which class does LPQEDPSTSQGCAQPQGAPCCSSS [FEM1A] fall in?
Marked response: three

Exam item: Which class does RRRGPRNKKRGWRRLAQEPLGLEV [NOP53] fall in?
Marked response: two

Exam item: Which class does KTLALARTMDIPRSVQNFRFFASS [ALDH8A1] fall in?
Marked response: one

Exam item: Which class does PVNALVSHLLVVEPEKLYAMPDPA [ESRRA] fall in?
Marked response: one

Exam item: Which class does SLESEEEEYPGITAEDSNDIYILP [BCL2L13] fall in?
Marked response: three

Exam item: Which class does FTIHNYSHSRERPYKCVQPDCGKA [PLAGL1] fall in?
Marked response: one

Exam item: Which class does PGQHLSDYSQLNESTTKESSEASQ [FBXO34] fall in?
Marked response: three

Exam item: Which class does LRITSGVVVCQCGLSIPSHSSELT [RPAIN] fall in?
Marked response: one

Exam item: Which class does LDFLHSANFSLGSINQRLNKRERS [RNF180] fall in?
Marked response: two

***
Exam item: Which class does QRLPRSAPPGSLVTKVTAVDADAG [PCDHGC5] fall in?
Marked response: three

---

# PROCEDURE_SUMMARY: protein stability index of a GFP-peptide fusion (GPS, HEK-293T) (PSI 1-6); higher = more stable
# MEASUREMENT_PARAMETERS: treatment: MLN4924 1 uM, 8 h; c terminus: a fixed tail appended
Each item that follows carries a reported protein stability index.
Note: the reply should be a number with no unit written.

These solved cases illustrate the format of a correct answer.
Lab book: protein stability index of VYSDHTNTNNLTFLMDLPSAGRSM [RNF180] noted as 2.79

Lab book: protein stability index of KSNSYPHQLYTSSSHHSHSYIGLP [KMT2E] noted as 3.24

Lab book: protein stability index of QQAEKILKSMDKNGTMTIDWNEWR [SLC25A25] noted as 3.56

Lab book: protein stability index of LLSKYCGYREDNIPQLEDVSNFLK [TPH1] noted as 2.61

Lab book: protein stability index of LIANIVHDGKPSEGSYRIHVLHHG [USP39] noted as 2.19

Lab book: protein stability index of REEEDRALPENEFKKQIWLLFEYP [KCNA4] noted as 2.94

***
Lab book: protein stability index of AAGYIQCMHEVHTFVSTCQAIDAT [HES6] noted as 2.12

Lab book: protein stability index of DISMEIDSPENMMRHIRFLKNEVE [CCDC6] noted as 3.86

Lab book: protein stability index of AGEAHMAADGETNGSCENSDASSH [EHMT1] noted as 5.69

Lab book: protein stability index of MASFPPRVNEKEIVRLRTIGELLA [WSB1] noted as 2.14
